# Procedure details: qHTS RealTime-Glo MT Cell Viability Assay in HEK293 cells - 16 hour (AID 1224872); further: nearly all actives have a fitted effect of over 50% in size; further: potency means the concentration at half of the fitted maximal effect
# Condition notes: RealTime-Glo luminescence; series mostly up to 76.8 µM
Results filed as inconclusive are left out. Active and inactive are the calls of the source. The call rests on the fitted dose curve; in most records, active means well fitted cell-killing curve with a large enough effect in the repeat runs; inconclusive means weak or mixed curves, or effect the other way; inactive means flat fitted curve, though single readings scatter.
Measurement type: Potency

CC1=C(/C=C/C(C)=C\C=C\C(C)=C\C(=O)O)C(C)(C)CCC1 inactive
C[C@]12CCC(=O)C=C1C=C[C@@H]1[C@@H]2CC[C@@]2(C)[C@H]1CC[C@@]21CCC(=O)O1 inactive
CO[Si](C)(OC)OC inactive
O=C(CCC1CCN(Cc2ccccc2)CC1)c1ccc2c(c1)NCCCC2 9.52 µM (active)
O=C1NCCN1 inactive

Could you now look at the following molecule, please?
Documented Potency of `CCN(CC)CCNC(=O)c1ccc(NC(C)=O)cc1` : inactive

====

# Procedure details: qHTS assay to identify small molecule agonists of the estrogen receptor beta (ER-beta) signaling pathway - cell viability counter screen (AID 1259380); further: nearly all actives have a fitted effect of over 30% in size
# Condition notes: ER-beta-bla HEK293T viability, CellTiter-Glo luminescence, 16 h; series mostly up to 92.4 µM
Records with an inconclusive call do not appear. Active and inactive are the calls of the source. The call rests on the fitted dose curve; in most records, active means well fitted cell-killing curve with a large enough effect in the repeat runs; inconclusive means weak or mixed curves, or effect the other way; inactive means flat fitted curve, though single readings scatter.
Valid outcomes are listed here; reply with one: true (1) (active), false (0) (inactive)

As a guide, the following entries are already answered.
Compound	Label class
O=C(N[C@@H](c1ccccc1)[C@@H]1CCCCN1)c1cccc(C(F)(F)F)c1Cl	true (1)
Cc1oncc1C(=O)Nc1ccc(C(F)(F)F)cc1	false (0)

Hello, I am checking results. What call was entered for `CC(=O)Nc1ccccc1C` ? false (0)

Hello, I am checking results. What call was entered for CC(C)(C)C(=O)C(Oc1ccc(Cl)cc1)n1ccnc1 (stereo not drawn) ? true (1)

Hello, I am checking results. What call was entered for `O=C(OCCOCCO)c1ccccc1Nc1cccc(C(F)(F)F)c1` ? false (0)

====

# Procedure details: qHTS assay to identify small molecule antagonists of the estrogen receptor beta (ER-beta) signaling pathway - cell viability counter screen (AID 1259382); further: nearly all actives have a fitted effect of over 55% in size
# Condition notes: ER-beta-UAS-bla HEK293T viability, CellTiter-Glo luminescence, 16 h; series mostly up to 92.4 µM
Inconclusive results are not listed. Activity calls are given as the source filed them. Calls come from the whole dose curve; as a rule, active = well fitted cell-killing curve with a large enough effect in the repeat runs; inconclusive = weak or mixed curves; inactive = flat fitted curve, though single readings scatter.
Valid outcomes are listed here; reply with one: active, inactive

As a guide, the following entries are already answered.
Compound	Label class
O=C(O)C(Cc1cc(I)c(O)c(I)c1)c1ccccc1 (stereo not given)	inactive
Nc1ccc(S(=O)(=O)O)c(N)c1	inactive
O=C(N[C@@H](c1ccccc1)[C@@H]1CCCCN1)c1cccc(C(F)(F)F)c1Cl	active
CCCCC1C(=O)N(c2ccccc2)N(c2ccc(O)cc2)C1=O (stereo not given)	active

Now turn to the next compound.
Hello, I am checking results. What call was entered for `CCC(C)=O` ? inactive

====

# System tested: Nuclear receptor subfamily 1 group I member 2 (Homo sapiens)
# Procedure details: Human pregnane X receptor (PXR) small molecule agonists, qHTS assay (AID 1346982); further: nearly all actives have a fitted effect of over 35% in size; further: potency means the concentration at half of the fitted maximal effect
# Condition notes: PXR-Luc HepG2, CYP3A4 luciferase reporter, 24 h; series mostly up to 92.4 µM
Records with an inconclusive call do not appear. Active and inactive are the calls of the source. Calls follow the shape of the dose curve; as a rule, active = well fitted activation curve with a large enough effect in the repeat runs; inconclusive = weak or mixed curves; inactive = no such curve, though single readings can be large or run the other way.
Measurement type: Potency

Here is how some compounds turned out for Potency.
Compound	Potency
CCCCC1C(=O)N(c2ccccc2)N(c2ccc(O)cc2)C1=O (stereo not drawn)	11.9 µM (active)
CC(C)CCCC(=O)O	inactive
Cc1nc2ccccn2c(=O)c1CCN1CCC(C(=O)c2ccc(F)cc2)CC1	inactive
O=C1OCCN1/N=C/c1ccc([N+](=O)[O-])o1	inactive

Value sought for every listed compound: Potency.
1. CC1CC(O)CC(C)(C)C1 (stereo not drawn)
2. CCCCN(CCCC)C(=S)SSC(=S)N(CCCC)CCCC
3. Cc1ccc(S)cc1
4. CCC(C(=O)OCCOCCN(CC)CC)c1ccccc1 (stereo not drawn)
5. CCCCCCCCCCCCCCC[C@H](O)[C@@H](N)CO

["inactive", "30.3 µM (active)", "inactive", "inactive", "inactive"]

// data source = PubChem BioAssay (Tox21)
